Values compiled from ChEMBL document CHEMBL4808168.

assay: Unbound clearance in rat; format: ADME; conditions: in vivo

>  <Molecular String>
Cc1ncnc2c1ccn2[C@@H]1O[C@@H]2[C@@H](Oc3ccc4cc(Br)c(N)nc4c3)CC[C@]2(O)[C@H]1O

>  <CL free / mL/min/kg>
1444

$$$$
>  <Molecular String>
Nc1nc2cc(C[C@@H]3CC[C@@]4(O)[C@@H]3O[C@@H](n3ccc5c(N)ncnc53)[C@@H]4O)ccc2cc1Br

>  <CL free / mL/min/kg>
940

$$$$
>  <Molecular String>
Cc1ncnc2c1ccn2[C@@H]1C[C@@H]2[C@H](Cc3ccc4cc(Cl)c(N)nc4c3)CC[C@]2(O)[C@H]1O

>  <CL free / mL/min/kg>
424

$$$$
>  <Molecular String>
Cc1ncnc2c1ccn2[C@@H]1O[C@@H]2[C@@H](Oc3ccc4cc(F)c(N)nc4c3)CC[C@]2(O)[C@H]1O

>  <CL free / mL/min/kg>
345

$$$$
>  <Molecular String>
Cc1cc2ccc(C[C@@H]3CC[C@@]4(O)[C@@H]3O[C@@H](n3ccc5c(N)ncnc53)[C@@H]4O)cc2nc1N

>  <CL free / mL/min/kg>
523

$$$$
>  <Molecular String>
Cc1cn([C@@H]2C[C@@H]3[C@H](Cc4ccc5cc(F)c(N)nc5c4)CC[C@]3(O)[C@H]2O)c2ncnc(N)c12

>  <CL free / mL/min/kg>
788

$$$$
>  <Molecular String>
Nc1nc2cc(C[C@@H]3CC[C@@]4(O)[C@@H]3O[C@@H](n3ccc5c(N)ncnc53)[C@@H]4O)ccc2cc1Cl

>  <CL free / mL/min/kg>
1045

$$$$
>  <Molecular String>
Cc1ncnc2c1ccn2[C@@H]1O[C@@H]2[C@H](Cc3ccc4cc(Cl)c(N)nc4c3)CC[C@]2(O)[C@H]1O

>  <CL free / mL/min/kg>
667

$$$$
>  <Molecular String>
Nc1nc2cc(C[C@@H]3CC[C@@]4(O)[C@@H]3O[C@@H](n3ccc5c(N)ncnc53)[C@@H]4O)ccc2cc1F

>  <CL free / mL/min/kg>
1029

$$$$
>  <Molecular String>
Nc1nc2cc(C[C@@H]3CC[C@@]4(O)[C@@H]3C[C@@H](n3cc(F)c5c(N)ncnc53)[C@@H]4O)ccc2cc1F

>  <CL free / mL/min/kg>
1476

$$$$
>  <Molecular String>
Nc1nc2cc(C[C@@H]3CC[C@@]4(O)[C@@H]3C[C@@H](n3cc(F)c5c(N)ncnc53)[C@@H]4O)cc(F)c2cc1F

>  <CL free / mL/min/kg>
368

$$$$
>  <Molecular String>
Nc1nc2cc(O[C@H]3CC[C@@]4(O)[C@@H]3O[C@@H](n3ccc5c(N)ncnc53)[C@@H]4O)ccc2cc1Br

>  <CL free / mL/min/kg>
349

$$$$
>  <Molecular String>
Nc1nc2cc(C[C@@H]3CC[C@@]4(O)[C@@H]3O[C@@H](n3ccc5c(N)ncnc53)[C@@H]4O)c(F)cc2cc1F

>  <CL free / mL/min/kg>
844

$$$$
>  <Molecular String>
Cc1ncnc2c1ccn2[C@@H]1C[C@@H]2[C@H](Cc3ccc4cc(Br)c(N)nc4c3)CC[C@]2(O)[C@H]1O

>  <CL free / mL/min/kg>
835

$$$$
>  <Molecular String>
Nc1nc2cc(C[C@@H]3CC[C@@]4(O)[C@@H]3O[C@@H](n3ccc5c(N)ncnc53)[C@@H]4O)cc(F)c2cc1F

>  <CL free / mL/min/kg>
430

$$$$
